Attribution: PubChem BioAssay (NCI)

Tested on: MCF7 breast
Experiment: NCI-60 one-dose screen, 48 h (100 = growth as untreated, 0 = no growth, -100 = all killed)
Details: 10 µM
Protocol: Growth inhibition of the MCF7 human tumor cell line is measured as a screen for anti-cancer activity. Cells are grown in 96 well plates and exposed to the test compound for 48 hours. Compounds are tested at a single concentration, which is 10^-5 M for most compounds. The reported endpoint is percent growth (GI% or GIPRCNT), where numbers from 0 - 100% represent growth inhibition, and numbers from -100% - 0 represent cell death. For example, a value of 40 represents 60% growth inhibition. […]
About 83,000 compounds went through this panel and 20% of them were active in at least one assay; those are over-represented in the sample as a whole.
Please use Y whenever growth is not below 20%, and N whenever it is.

Check out these entries, answers already filled in.
INSERT INTO assay_data (molecule, assigned_class) VALUES
  ('O=C(c1nc2ccccc2[nH]1)C1[C@@H](c2cccc(O)c2)C2CC3CCCCC3N2[C@@]12C(=O)Nc1cc(Cl)ccc12 (stereo not given in full)', 'N'),
  ('CN(CCc1ccccc1)C(=S)N(C(=O)c1ccc([N+](=O)[O-])cc1)c1ccc(Cl)cc1', 'Y'),
  ('CN(O)c1nc(N(C)O)nc(N2CCOCC2)n1', 'N');

Lookup: Could you verify whether the entry "Nc1ccccc1-c1ccc(-c2ccc(Cl)cc2)c2c1[nH]c1ccccc12" shows growth of no less than 20%?
Found: Y

Lookup: Could you verify whether the entry S=C1NC2(c3ccccc3)CCC(=S)N2c2ccccc21 (stereo not given) shows growth of no less than 20%?
Found: Y

Lookup: Confirm if growth reported for the molecule "Fc1cccc(COc2ccc(Nc3ncnc4onc(-c5ccccc5)c34)cc2)c1" is 20% or above.
Found: N

Lookup: Would you say "O=c1oc2ccc(Br)cc2c(=O)n1-c1ccc(Cl)cc1F" shows growth at minimum 20%?
Found: N

Lookup: Please tell me: is the molecule "O=C(/C=C/c1ccc(C(F)(F)F)cc1)c1ccc(Nc2nc(NCCO)nc(Nc3ccc(Cl)cc3)n2)cc1" at or over 20% in terms of growth?
Found: N

Lookup: Can "COC(=O)/C(CCC=C(C)C)=C1\[C@@H](OC(C)=O)C[C@@]2(C)[C@H]1CC(=O)[C@H]1[C@@]3(C)CC[C@H](NCc4ccccc4)[C@@H](C)[C@@H]3CC[C@@]12C" be said to have growth at or above 20%?
Found: Y

Lookup: I'd appreciate it if you could say whether "CCOC(=O)c1sc(-c2ccc(OS(=O)(=O)c3cccs3)c(C=O)c2)nc1C" has growth at least equal to 20%.
Found: N

Lookup: Is the recorded value of growth equal to or greater than 20% for this molecule? "COc1ccc(/C=C2/SC(=O)N(CC(=O)N3CCN(c4cc5c(cc4F)c(=O)c(C(=O)O)cn5C4CC4)CC3)C2=O)cc1"
Found: Y
